System: A549
Test: NCI tumour cell line growth inhibition, 48 h
Activity calls are given as the source filed them. Rule as the data show it: active = GI50 up to about 1.1 µM and inactive = higher.
Outcomes: active, inactive

- compound: "O=C(NC1(c2cc3ccccc3s2)CCCCC1)C1CCC1"
  group label: "inactive"
- compound: "C/C(=N\\NC(=S)N1CCCCCC1)c1ccccn1"
  group label: "active"
- compound: "CSc1cc(Cl)c(C)cc1S(=O)(=O)NC(=O)NNc1ccc(C)cc1"
  group label: "inactive"
- compound: "Cc1nc(-c2ccc(Cl)cc2)cn2c1nc1ccccc12"
  group label: "inactive"
- compound: "C[N+](C)(C)CC(=O)N/N=C(\\C(=O)NC1=C(Cl)C(=O)c2ccccc2C1=O)C(C#N)c1nc(-c2ccc([N+](=O)[O-])cc2)cs1 (configuration not stated)"
  group label: "inactive"
- compound: "CCSCCCCC(c1ccc(O)cc1)C(C)(CC)c1ccc(O)cc1 (configuration not stated)"
  group label: "inactive"
- compound: "CN(C)c1nc(N(C)C)nc(N(C)CN(C)c2nc(N(C)C)nc(N(C)C)n2)n1"
  group label: "inactive"
- compound: "O=C(O)COc1cc(-c2ccccc2)nc2ccc(F)cc12"
  group label: "inactive"
- compound: "O=C1c2ccsc2C(=O)c2sc(CO)cc21"
  group label: "active"
- compound: "CCCOP1(=O)C=CC(Cl)=C(C)C1 (configuration not stated)"
  group label: "inactive"
- compound: "CC1=CC(=O)/C(=C/n2c(=S)[nH]c3cc(C)ccc32)C(=O)O1"
  group label: "inactive"
- compound: "C[N+]1(C)C/C(=C\\c2ccc(O)cc2)C(=O)/C(=C/c2ccc(O)cc2)C1"
  group label: "inactive"
- compound: "SC1=NC2=C(CSC/C2=C\\c2cccc(Br)c2)C(c2cccc(Br)c2)N1 (configuration not stated)"
  group label: "inactive"
- compound: "CC(C)C(C/C=C1\\CC(CO)(COC(=O)C2CCCCC2)OC1=O)C(C)C (configuration not stated)"
  group label: "inactive"
- compound: "Cc1ccc(S(=O)(=O)ON/N=C2/C3OC3[C@@H]3CCCC[C@H]23)cc1 (some centres not stated)"
  group label: "inactive"
- compound: "Nc1nc(O)c2c(n1)NCN(CCCN1CCOCC1)C2"
  group label: "inactive"
- compound: "N/C(=C\\c1ccc(OCc2ccccc2)c(OCc2ccccc2)c1[N+](=O)[O-])C(=O)O"
  group label: "inactive"
- compound: "CCOc1ccc2nc(NC(NC(=O)c3cccnc3)(C(F)(F)F)C(F)(F)F)sc2c1"
  group label: "inactive"
- compound: "COc1cc(C2c3cc4c(cc3OC(N3CCOCC3)C2C)OCO4)cc(OC)c1O (configuration not stated)"
  group label: "inactive"
- compound: "Cc1ccc(NC(=O)CCc2nnc(N)o2)cc1"
  group label: "inactive"
- compound: "Cc1cc2c(=O)c3ccc(Cl)cc3[nH]c2c(C(N)=O)c1C"
  group label: "inactive"
- compound: "CCOC(=O)c1c[nH]c2c(ccc3ncccc32)c1=O"
  group label: "inactive"

====

Tested on: HOP-62
Experiment: NCI tumour cell line growth inhibition, 48 h
Calls of active or inactive are those of the source. Cut-off read from the data, not from the text of the source: active = GI50 up to about 1.1 µM and inactive = higher.
Outcomes: active, inactive

- compound: "COc1nc2nccc-2c2occn12"
  group label: "inactive"
- compound: "COC(=O)CC(C(C(=O)OC)C(=O)OC)N1C(=O)OC(c2ccccc2)C1c1ccccc1 (centres undefined)"
  group label: "inactive"
- compound: "O=C1/C(=C/c2ccccc2)CN(C(=O)/C=C/c2ccccc2)C/C1=C\\c1ccccc1"
  group label: "inactive"
- compound: "CCN(CC)CCNc1nc(N)c(C#N)c(C#N)c1C#N"
  group label: "inactive"
- compound: "NC(CC(=O)O)(Cc1ccccc1)C(=O)O (centres undefined)"
  group label: "inactive"
- compound: "CCOC(=O)Nc1cc2c(c(N)n1)N=C(c1ccccc1)CN2"
  group label: "active"
- compound: "COc1cc(C2c3cc4c(cc3OC(N3CCOCC3)C2C)OCO4)cc(OC)c1O (centres undefined)"
  group label: "inactive"
- compound: "COc1ccc(CCNC(=O)Cc2ccccc2CCO)cc1OC"
  group label: "inactive"
- compound: "CCOC(=O)c1c(-c2ccc(O)c(OC)c2)c(C#N)c(=S)n(C2OC(COC(C)=O)C(OC(C)=O)C(OC(C)=O)C2OC(C)=O)c1-c1ccccc1 (centres undefined)"
  group label: "inactive"
- compound: "COc1ccc(C2Oc3c(cccc3OC)C=C2[N+](=O)[O-])cc1OC (centres undefined)"
  group label: "inactive"
- compound: "CCCCN(CCCC)CC(C(=O)Nc1ccc([N+](=O)[O-])cc1[N+](=O)[O-])/C(C)=N\\NC(=S)NN (centres undefined)"
  group label: "inactive"
- compound: "Cc1cn([C@@H]2C[C@@H]2CO)c(=O)[nH]c1=O"
  group label: "inactive"
- compound: "CCOc1ccc(/C=C/C(=O)c2sc(NNC(C)=O)nc2C)cc1"
  group label: "inactive"
- compound: "O=C(/C=C/c1ccc(O)c(-c2cc(C(=O)/C=C/c3ccc(O)cc3)c(O)cc2O)c1)c1ccc(O)cc1O"
  group label: "inactive"
- compound: "CN1CN(c2ccccc2)C2(CCN(Cc3csc4ccccc34)CC2)C1=O"
  group label: "inactive"
- compound: "Cc1ccc2c(O)cc(-c3cccc(Cl)c3)nc2n1"
  group label: "active"
- compound: "O=C1OC2C(O)COC2(O)C1(O)C(C[N+](=O)[O-])c1ccc(Cl)cc1 (centres undefined)"
  group label: "inactive"
- compound: "Cn1c2ccccc2c(=NNc2ccc(C(=O)O)cc2)c2ccccc21"
  group label: "inactive"
- compound: "CNC(=O)CC1NC(=O)c2csc(n2)-c2ccc(-c3nc(C4=NC(C(=O)N5CCCC5C(N)=O)CO4)cs3)nc2-c2csc(n2)-c2csc(n2)C(C(C)C)NC(=O)CNC(=O)c2csc(n2)C(C(C)C)NC(=O)c2nc1sc2C (centres undefined)"
  group label: "active"
- compound: "COc1ccc(/N=N/C(=N\\c2ccc(Cl)cc2)c2ccc(N(CCC#N)CCC#N)cc2)cc1"
  group label: "inactive"
- compound: "CCOP(=O)(Cc1nc(C#N)c(N)o1)OCC"
  group label: "inactive"
- compound: "O=C(c1ccsc1)c1nccc2c1cnc1ccccc12"
  group label: "inactive"
- compound: "CC(C)C(C/C=C1/CC(CO)(COC(=O)C2CCCCC2)OC1=O)C(C)C (centres undefined)"
  group label: "inactive"
- compound: "CCOc1ccc2nc(NC(=O)C(=O)C(C#N)CC(C)(C)C=O)sc2c1 (centres undefined)"
  group label: "inactive"
- compound: "C=C1C(=O)O[C@H]2[C@H]1[C@H](OC(=O)/C(C)=C\\C)C[C@]1(CO1)[C@@H]1[C@H](OC(C)=O)C=C(C)[C@]21O [EUPAROTIN ACETATE]"
  group label: "inactive"
- compound: "C[N+](C)(C)CC(=O)N/N=C(\\C(=O)NC1=C(Cl)C(=O)c2ccccc2C1=O)C(C#N)c1nc(-c2ccc([N+](=O)[O-])cc2)cs1 (centres undefined)"
  group label: "inactive"
- compound: "CC(N)C(=O)c1ccc(O)cc1 (centres undefined)"
  group label: "inactive"
- compound: "C=C1C[C@@H]2O[C@H]3[C@H]4[C@@H](C[C@@H](C)[C@@H](OC(C)=O)[C@H]42)[C@@H](C)CO[C@@]3(C)[C@H](OC(=O)CCCCCCC)CC1=O"
  group label: "inactive"
- compound: "O=C(C1OC1c1cccc([N+](=O)[O-])c1)C12CC3CC(CC(C3)C1)C2 (centres undefined)"
  group label: "inactive"
- compound: "CC(=O)O[C@H]1CC[C@H]2[C@@H]3CC[C@H]4Nc5c(cnn5S(C)(=O)=O)C[C@]4(C)[C@H]3CC[C@]12C"
  group label: "inactive"
- compound: "CCN1CCN(c2nc3ccc([N+](=O)[O-])cc3nc2C(=O)c2ccccc2)CC1"
  group label: "inactive"
- compound: "O=C1CCC(=O)C12CCc1cccc(O)c12"
  group label: "inactive"
- compound: "CCOC(=O)C1=C(O)C(=O)c2cc(C)ccc2C1=O"
  group label: "inactive"
- compound: "Cc1c(O)c(=O)ccn1CCO"
  group label: "inactive"
- compound: "O=C(O)C12CCC(CC1=O)C2 (centres undefined)"
  group label: "inactive"
- compound: "c1ccc2nc(-c3ccc4c(c3)OCO4)ccc2c1"
  group label: "inactive"
- compound: "CCOc1ccc(O)cc1[P+](c1ccccc1)(c1ccccc1)c1ccccc1"
  group label: "inactive"
- compound: "Cc1ccc(C)n2c1nc1ccccc12"
  group label: "inactive"
- compound: "CCCCCCCCCCCCCCCC(=O)OCC(O)C1OC(=O)C(O)=C1O (centres undefined)"
  group label: "inactive"

====

Test system: LOX IMVI
Test: NCI tumour cell line growth inhibition, 48 h
The source made the active and inactive calls. Cut-off read from the data, not from the text of the source: active = GI50 up to about 1.1 µM and inactive = higher.
Outcomes: TRUE for active, FALSE for inactive

- compound: "Cc1cn([C@@H]2C[C@@H]2CO)c(=O)[nH]c1=O"
  group label: "FALSE"
- compound: "CC(=O)OC1[C@@H](OC(C)=O)CN(OCc2ccccc2)C[C@H]1OC(C)=O (stereo partly drawn)"
  group label: "FALSE"
- compound: "Cc1cc2c(=Cc3ccc(N(C)C)cc3)c3ccccc3n2[n+]1C"
  group label: "TRUE"
- compound: "COC(=O)Nc1nc2cc(C(=O)c3ccc[nH]3)ccc2[nH]1"
  group label: "TRUE"
- compound: "Cc1nn(-c2ccccn2)c2c1C(SC#N)=C(C=O)CC2"
  group label: "FALSE"
- compound: "Nc1nc(Cl)cc(NCC2(CO)CC(CCCCc3ccccc3)C2)n1 (stereo not drawn)"
  group label: "FALSE"
- compound: "CCOC(=O)C1=C(O)C(=O)c2cc(C)ccc2C1=O"
  group label: "FALSE"
- compound: "OCCCSc1ccccc1SCCCO"
  group label: "FALSE"
- compound: "CCSCCCCC(c1ccc(O)cc1)C(C)(CC)c1ccc(O)cc1 (stereo not drawn)"
  group label: "FALSE"
- compound: "O=C1C(CO)=C[C@@H](O)[C@H]2O[C@@H]12"
  group label: "FALSE"
- compound: "Cc1c(O)c(=O)ccn1CCO"
  group label: "FALSE"
- compound: "CC(=O)OC1CCN(C(=O)c2ccccc2)CC1CC1(c2cc3ccccc3[nH]2)OCCO1 (stereo not drawn)"
  group label: "FALSE"
- compound: "O=C1c2cccc3cc([N+](=O)[O-])cc(c23)C(=O)N1CCCN1CCN(CCCN2C(=O)c3cccc4cc([N+](=O)[O-])cc(c34)C2=O)CC1"
  group label: "TRUE"
- compound: "COC(=O)C1(CCC(=O)N(C)c2ccccc2)NNC2C(=O)N(c3ccccc3)C(=O)C21 (stereo not drawn)"
  group label: "FALSE"
- compound: "COC(=O)c1ccccc1/C=C1\\Cc2cc(C)cc(C)c2C1=O"
  group label: "FALSE"
- compound: "CC(=O)O[C@H]1CC[C@H]2[C@@H]3CCC4=CC(=O)C=C[C@]4(O)[C@H]3CC[C@]12C"
  group label: "FALSE"
- compound: "CN(C)CCCn1c(Cc2ccccc2)nc2cc(C(F)(F)F)ccc21"
  group label: "FALSE"
- compound: "C=C1C[C@@H]2O[C@H]3[C@H]4[C@@H](C[C@@H](C)[C@@H](OC(C)=O)[C@H]42)[C@@H](C)CO[C@@]3(C)[C@H](OC(=O)CCCCCCC)CC1=O"
  group label: "FALSE"
- compound: "Nc1ccc(C2=Nc3ccccc3SC(c3ccccc3O)C2)cc1 (stereo not drawn)"
  group label: "FALSE"
- compound: "Cc1cc(C)c2c(c1)CC1(Cc3c(C)cc(C)cc3C1=O)C2=O (stereo not drawn)"
  group label: "FALSE"
- compound: "Cc1c(C(=O)CSc2nc3cc([N+](=O)[O-])ccc3[nH]2)c(=O)n(-c2ccccc2)n1C"
  group label: "FALSE"
- compound: "Cc1c2cc[n+](C)cc2c(C)c2c1[nH]c1ccc(Oc3ccccc3)cc12"
  group label: "FALSE"
- compound: "Cc1c(/C=N/NC(=O)c2cc(Br)cc(Br)c2O)c(=O)n(-c2ccccc2)n1C"
  group label: "FALSE"
